Every entry's value here was drawn from PubChem BioAssay (EPA / NIEHS).

Read-out: Collagen I, COL1A1 (gene 1277)
Assay: BSK_MyoF_CollagenI: BioMAP Diversity Plus: MyoF Assay for Collagen I Biomarker Activity (AID 2284238)
Settings: primary human lung fibroblasts
Activity calls are given as the source filed them. Rule for the calls: active = hit-call score of the fitted dose curve at least 0.9, where 1 is the maximum; inactive = score below 0.9.
measurement-label: outcome

// worked examples, outcome included
compound=Fc1ccc(Br)cc1 measurement_label=outcome reported_result=inactive
compound="CCOC(=O)C1=NN(c2ccc(Cl)cc2Cl)C(C)(C(=O)OCC)C1 (stereo not given)" measurement_label=outcome reported_result=inactive
compound=CCCCC1C(=O)N(c2ccccc2)N(c2ccccc2)C1=O measurement_label=outcome reported_result=inactive
compound=Clc1cc(Cl)c(Cl)c(Cl)c1Cl measurement_label=outcome reported_result=inactive

We now examine a further compound.
# input What value of outcome has been reported for the following compound? C=CC(=O)NC(C)(C)C
# output inactive

###

Assay: ACEA_ER_AUC_viability: ACEA Biosciences xCELLigence Real-Time Cell Analysis on Estrogen Receptor Agonism for Viability (AID 2283782);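 note: continuous compound exposure with impedance area under curve over 80 h; hit means loss of impedance signal meaning reduced cell growth or viability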
Results filed as inconclusive are left out. Active and inactive are the calls of the source. The calls were made as follows: active = hit-call score of the fitted dose curve at least 0.9, where 1 is the maximum; inconclusive = response in the unintended direction; inactive = score below 0.9.
Permitted responses: active, inactive

# input Can you look up the reported call for CCCC1CCCC(=O)O1 (configuration not stated) for me?
# output inactive

# input And then CCc1cccc(C)c1N(C(=O)CS(=O)(=O)O)C(C)COC (configuration not stated) , what is it?
# output active

# input What about this compound? CC1(C)CCC[C@]2(C)[C@H]3CC(=O)O[C@]3(C)CC[C@@H]12
# output inactive

# input Here is the next compound: CC(C)OC(=O)c1ccccc1
# output inactive

# input Moving on to the next compound: CC(Cl)COP(=O)(OCC(C)Cl)OCC(C)Cl (configuration not stated)
# output inactive

# input Also CC1=CP(=O)(c2ccccc2)CC1 (configuration not stated) ?
# output inactive

# input Please do the same for Nc1nc(N)nc(-c2ccccc2)n1 as well.
# output inactive

###

Target: Estrogen receptor (Homo sapiens) (UniProt P03372)
Sequence (P03372 whole entry, looked up): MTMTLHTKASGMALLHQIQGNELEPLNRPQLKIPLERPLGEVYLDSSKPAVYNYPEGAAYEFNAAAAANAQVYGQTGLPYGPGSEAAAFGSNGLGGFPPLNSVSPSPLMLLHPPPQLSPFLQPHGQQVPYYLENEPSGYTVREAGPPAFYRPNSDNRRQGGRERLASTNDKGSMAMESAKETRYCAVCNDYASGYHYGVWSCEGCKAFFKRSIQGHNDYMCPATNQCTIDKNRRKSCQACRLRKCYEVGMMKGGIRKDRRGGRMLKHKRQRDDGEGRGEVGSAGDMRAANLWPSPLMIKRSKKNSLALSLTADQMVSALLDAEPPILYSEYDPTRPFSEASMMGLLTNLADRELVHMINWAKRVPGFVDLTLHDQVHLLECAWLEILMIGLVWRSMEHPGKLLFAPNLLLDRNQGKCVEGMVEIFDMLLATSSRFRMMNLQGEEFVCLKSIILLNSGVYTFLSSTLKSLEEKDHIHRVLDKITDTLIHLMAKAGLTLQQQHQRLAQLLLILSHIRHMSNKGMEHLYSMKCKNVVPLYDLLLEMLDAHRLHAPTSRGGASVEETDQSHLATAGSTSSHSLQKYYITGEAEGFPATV
Assay: OT_ERa_GFPERaERE_0480: Odyssey Thera (OT) 8-hour HeLa Transcription Induction Assay for Estrogen Receptor (AID 2283381)
Activity calls are given as the source filed them. Rule for the calls: active = hit-call score of the fitted dose curve at least 0.9, where 1 is the maximum; inactive = score below 0.9.
measurement-label: AC50

Some compounds with known AC50 results, for comparison:
compound=CCOC(=O)c1ccc(C)cc1 measurement_label=AC50 reported_result=inactive
compound=CCCCCCC=O measurement_label=AC50 reported_result=inactive
compound=C1CNCCN1 measurement_label=AC50 reported_result=inactive
compound=CCCCCCCCCCCC(=O)N(C)CC(=O)O measurement_label=AC50 reported_result=inactive
compound=O=C(O)c1cc(O)c2ccccc2c1O measurement_label=AC50 reported_result="18.1 µM (active)"
compound=CN(C)c1ccc2nc3ccc(=[N+](C)C)cc-3sc2c1 measurement_label=AC50 reported_result="40.6 µM (active)"
compound=CCCCc1ccc(Cl)cc1 measurement_label=AC50 reported_result=inactive
compound="CCCC(CC)c1ccccc1 (configuration not stated)" measurement_label=AC50 reported_result=inactive

# input Recorded AC50 for O=C(O)CC(C(=O)O)S(=O)(=O)O (configuration not stated) with Estrogen receptor (Homo sapiens) (UniProt P03372), please?
# output inactive

# input Repeat with N#Cc1ccc(C2CCCc3cncn32)cc1 (configuration not stated)
# output 18.2 µM (active)

# input Please give the result for CCCCCCCO too.
# output inactive

###

Molecular target: Retinoic acid receptor RXR-alpha (Homo sapiens)
Test: OT_NURR1_NURR1RXRa_1440: Odyssey Thera (OT) 24-hour HEK293T Protein Complementation Assay for Nurr1/retinoid X receptor (RXR) (AID 2283386)
Inconclusive results are not listed. Active and inactive are the calls of the source. The calls were made as follows: active = hit-call score of the fitted dose curve at least 0.9, where 1 is the maximum; inconclusive = response in the unintended direction; inactive = score below 0.9.
The reply should be one of these categories: Y (active), N (inactive)

# input // outcome(item) with item = O=C(Nc1ccccc1)c1cc(Cl)ccc1O
# output Y

# input Please do the same for CCC(C)(O)CCCC(C)C (stereo unspecified) as well.
# output N

# input Try the compound CCCCC(=O)O
# output N

# input Query O=C(O)C1CCC(C(=O)O)CC1 (stereo unspecified) next
# output N

# input Follow-up item: CC(C)COC(=O)CC(C(=O)OCC(C)C)S(=O)(=O)O (stereo unspecified)
# output N

# input Check CC(C)(C)N too.
# output N

# input What would you report for CCCCCCOC(=O)CCCCC(=O)OCCCCCC ?
# output N

# input And for CC(=O)OC1CCCCC1C(C)(C)C (stereo unspecified) ?
# output N

# input Can you handle CCC[Si](OC)(OC)OC next?
# output N

# input Entry to check: CC(C)(C)C1CCC(=O)CC1
# output N

# input One more compound: COc1cc(O)c(C(=O)c2ccccc2)cc1S(=O)(=O)O
# output N

# input Now try CN(C)Cc1cc(CN(C)C)c(O)c(CN(C)C)c1 .
# output N

# input Ok, now CCCCCCCOC(=O)c1ccc(O)cc1
# output Y

# input Now consider CC1=CC=C(C(C)C)CC1 and answer again.
# output N

# input Then this compound: C=C1C[C@H]2[C@@H]3C=C(C)C4=CC(=O)CC[C@]4(C)[C@H]3CC[C@]2(C)[C@@]1(OC(C)=O)C(C)=O
# output Y

# input Entry to check: CCc1cccc(C)c1N
# output N

# input Moving on to CCCCCCO
# output N

# input Please give the result for C=C[C@@]1(C)CC(=O)[C@]2(O)[C@@]3(C)[C@@H](O)CCC(C)(C)[C@@H]3[C@H](O)[C@H](OC(C)=O)[C@@]2(C)O1 too.
# output Y

# input Then what about the compound CCOC(=O)c1ccc(C)cc1 ?
# output N

# input Entry to check: CCCCNS(=O)(=O)c1ccc(C)cc1
# output N

# input What do you get for CCCC(CC)c1ccccc1 (stereo unspecified) ?
# output N
